# Target: pneumolysin (Streptococcus pneumoniae serotype 2, UniProt Q04IN8)
# Sequence (Q04IN8 whole entry): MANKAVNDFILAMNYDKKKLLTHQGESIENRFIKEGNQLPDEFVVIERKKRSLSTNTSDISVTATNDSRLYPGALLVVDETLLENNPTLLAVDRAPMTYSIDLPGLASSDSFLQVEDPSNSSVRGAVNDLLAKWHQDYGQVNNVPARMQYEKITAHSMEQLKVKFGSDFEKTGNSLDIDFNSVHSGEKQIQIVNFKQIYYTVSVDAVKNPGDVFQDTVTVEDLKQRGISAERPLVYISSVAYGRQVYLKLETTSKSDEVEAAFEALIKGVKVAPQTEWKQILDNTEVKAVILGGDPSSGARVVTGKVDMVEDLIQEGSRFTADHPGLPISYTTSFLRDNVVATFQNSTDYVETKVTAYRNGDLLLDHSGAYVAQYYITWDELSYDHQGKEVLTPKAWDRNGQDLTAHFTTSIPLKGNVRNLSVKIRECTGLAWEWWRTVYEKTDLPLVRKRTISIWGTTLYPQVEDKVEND
# Experimental details: Inhibition of the haemolytic activity of pneumolysin (sheep erythrocytes)
# Format: cell-based
# Particulars: inhibition of pneumolysin-induced haemolysis of sheep erythrocytes; class symbols of Table 1; read-out: IC50
pIC50: −log10 of the molar value.
Assay endpoint: pIC50

Recorded pIC50, per entry:
CCOC(=O)c1c(O)c(OC(=O)N(C)C)c(C(=O)N(C)C)n1-c1ccc(OC)cc1	> 5.00
CCOC(=O)c1c(OC(=O)N2CCC(N3CCCCC3)CC2)c(OC(=O)N2CCC(N3CCCCC3)CC2)c(C(=O)N(C)C)n1-c1ccc(OC)cc1	< 4.22
CCOC(=O)c1c(OP(=O)(OCC)OCC)c(O)c(C(=O)N(C)C)n1-c1ccc(OC)cc1	4.22 to 4.70

Continue with the next molecule.
The molecule identified as "CCOC(=O)c1c(OC(=O)N2CCN(C)CC2)c(OC(=O)N2CCN(C)CC2)c(C(=O)N(C)C)n1-c1ccc(OC)cc1" registered its pIC50 at < 4.22

====

# Target: Suilysin (SLY) (Streptococcus suis, UniProt Q55996)
# Sequence (Q55996 28-497 limits assumed): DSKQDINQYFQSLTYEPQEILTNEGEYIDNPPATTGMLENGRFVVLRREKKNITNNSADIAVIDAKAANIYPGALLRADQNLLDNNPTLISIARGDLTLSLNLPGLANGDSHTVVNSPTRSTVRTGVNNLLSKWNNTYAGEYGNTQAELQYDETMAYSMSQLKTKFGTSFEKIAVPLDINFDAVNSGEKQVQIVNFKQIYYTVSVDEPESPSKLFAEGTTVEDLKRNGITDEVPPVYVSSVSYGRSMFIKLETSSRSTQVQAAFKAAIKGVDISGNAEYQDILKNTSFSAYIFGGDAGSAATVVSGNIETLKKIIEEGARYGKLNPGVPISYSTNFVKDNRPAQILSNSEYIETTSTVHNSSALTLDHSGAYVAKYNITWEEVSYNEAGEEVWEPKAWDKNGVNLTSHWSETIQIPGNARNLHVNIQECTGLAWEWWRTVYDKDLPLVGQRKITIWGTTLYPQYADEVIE
# Experimental details: Inhibition of the haemolytic activity of Suilysin
# Particulars: toxin SLY; haemolysis assay protocol of Section A
Provide the recorded IC50 for the entries that follow.

CCOC(=O)c1c(O)c(O)c(C(=O)N(C)C)n1-c1ccc(OC)cc1 [UL1-012]	< 10 µM

Given item CCOC(=O)c1c(O)c(O)c(C(=O)OCC)n1-c1ccc(OC)cc1 [UL2-001] , the value recorded as its IC50 is < 10 µM

====

# Target: pneumolysin (Streptococcus pneumoniae serotype 2, UniProt Q04IN8)
# Experimental details: Inhibition of the haemolytic activity of pneumolysin (sheep erythrocytes)
# Format: cell-based
# Particulars: IC50, inhibition of pneumolysin-induced haemolysis of sheep erythrocytes; class symbols of Table 1
For each entry below, report its IC50 value.

Answered cases to consult:
CCOC(=O)c1c(OC(=O)C(C)(C)COCCCOP(=O)(O)O)c(OC(=O)C(C)(C)COCCCOP(=O)(O)O)c(C(=O)N(C)C)n1-c1ccc(OC)cc1	< 10 µM
CCOC(=O)c1c(OCc2ccccc2)c(OCc2ccccc2)c(-c2ccccn2)n1-c1ccc(OC)cc1	10 to 20 µM
CCOC(=O)c1c(O)c(O)c(C(N)=O)n1-c1ccc(OC)cc1	< 10 µM

Please turn your attention to the following entry.
# IC50 of "CN(C)C(=O)c1c(OCc2ccccc2)c(OCc2ccccc2)c(C#N)n1-c1ccc(F)cc1" = < 10 µM

====

# Target: Listeriolysin O (LLO) (Listeria monocytogenes serovar 1/2a, UniProt P13128)
# Sequence (P13128 25-529): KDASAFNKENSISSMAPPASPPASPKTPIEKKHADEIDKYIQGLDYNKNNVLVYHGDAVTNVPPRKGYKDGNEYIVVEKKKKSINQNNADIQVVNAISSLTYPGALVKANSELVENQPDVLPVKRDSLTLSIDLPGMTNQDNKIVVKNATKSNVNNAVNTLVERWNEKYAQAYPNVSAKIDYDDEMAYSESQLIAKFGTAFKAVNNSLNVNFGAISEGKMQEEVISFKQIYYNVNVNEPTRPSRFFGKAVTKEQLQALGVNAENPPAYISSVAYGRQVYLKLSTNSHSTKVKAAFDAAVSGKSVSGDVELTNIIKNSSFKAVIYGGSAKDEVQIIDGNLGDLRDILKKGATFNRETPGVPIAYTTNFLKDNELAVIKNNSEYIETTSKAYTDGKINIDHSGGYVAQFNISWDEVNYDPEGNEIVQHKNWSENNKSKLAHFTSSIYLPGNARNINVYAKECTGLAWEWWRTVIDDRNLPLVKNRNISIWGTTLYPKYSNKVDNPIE
# Experimental details: Inhibition of the haemolytic activity of Listeriolysin O
# Particulars: toxin LLO; haemolysis assay protocol of Section A
Exercise: for every item that follows, state its recorded IC50.

CCOC(=O)c1c(O)c(O)c(C(=O)OCC)n1-c1ccc(OC)cc1	< 10 µM

Continue with the compound presented below.
get_value(item= "CCOC(=O)c1c(O)c(O)c(C(=O)N(C)C)n1-c1ccc(OC)cc1" , readout=IC50) returns < 10 µM

====

# Target: Perfringolysin O (PFO) (Clostridium perfringens)
# Sequence (P0C2E9 29-500 limits assumed): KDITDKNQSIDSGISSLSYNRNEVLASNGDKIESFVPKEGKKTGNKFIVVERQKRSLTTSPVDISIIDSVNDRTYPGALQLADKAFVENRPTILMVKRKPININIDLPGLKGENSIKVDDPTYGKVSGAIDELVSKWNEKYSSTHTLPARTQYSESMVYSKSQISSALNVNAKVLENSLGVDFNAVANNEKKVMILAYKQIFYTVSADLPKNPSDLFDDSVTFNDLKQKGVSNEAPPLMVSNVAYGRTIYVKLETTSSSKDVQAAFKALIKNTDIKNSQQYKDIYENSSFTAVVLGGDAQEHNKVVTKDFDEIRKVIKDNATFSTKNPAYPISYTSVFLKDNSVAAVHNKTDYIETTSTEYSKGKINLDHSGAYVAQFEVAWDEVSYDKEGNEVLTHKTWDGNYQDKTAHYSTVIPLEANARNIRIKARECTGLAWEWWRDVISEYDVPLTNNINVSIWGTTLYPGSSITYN
Assay endpoint: IC50

CCOC(=O)c1c(O)c(O)c(C(=O)N(C)C)n1-c1ccc(OC)cc1	< 10 µM

Query "CCOC(=O)c1c(O)c(O)c(C(=O)OCC)n1-c1ccc(OC)cc1" yields IC50 of < 10 µM

====

Provide the reported [ ] (μM) t120 min. Prodrug of each item.
# Experimental details: Conversion of prodrug derivatives to active inhibitors in mouse plasma
# Format: in vitro ADME
# Particulars: 37° C., 10 μM start, prodrug remaining, 120 min
Numbers only, in µM.

CCOC(=O)c1c(OCOP(=O)(O)O)c(O)c(C(=O)N(C)C)n1-c1ccc(OC)cc1	0.38
CCOC(=O)c1c(O)c(OC(=O)N2CCC(N3CCCCC3)CC2)c(C(=O)N(C)C)n1-c1ccc(OC)cc1	7.39
CCOC(=O)c1c(OC(=O)C(C)(C)COCCOCCOP(=O)(O)O)c(OC(=O)C(C)(C)COCCOCCOP(=O)(O)O)c(C(=O)N(C)C)n1-c1ccc(OC)cc1	0.21

Can you give me [ ] (μM) t120 min. Prodrug for all of these, one by one?
1. CCOC(=O)c1c(O)c(OP(=O)(O)O)c(C(=O)N(C)C)n1-c1ccc(OC)cc1
2. CCOC(=O)c1c(OC(=O)N2CCC(N3CCCCC3)CC2)c(OC(=O)N2CCC(N3CCCCC3)CC2)c(C(=O)N(C)C)n1-c1ccc(OC)cc1
3. COc1ccc(-n2c(C(=O)N(C)C)c(OC(=O)C(C)C)c(OC(=O)C(C)C)c2C(=O)N(C)C)cc1
4. CCOC(=O)c1c(OC(=O)C(C)C)c(OC(=O)C(C)C)c(C(=O)N(C)C)n1-c1ccc(OCCOCCOCCOC)cc1

### Response
1: 0.93; 2: 1.14; 3: 0; 4: 0

====

# Target: pneumolysin (Streptococcus pneumoniae serotype 2)
# Experimental details: Inhibition of the haemolytic activity of pneumolysin (sheep erythrocytes)
# Format: cell-based
# Particulars: IC50, inhibition of pneumolysin-induced haemolysis of sheep erythrocytes; class symbols of Table 1
pIC50: −log10 of the molar value.
Assay endpoint: pIC50

CCOC(=O)c1c(O)c(OCCO)c(C(=O)OCC)n1-c1ccc(F)cc1	4.22 to 4.70

Here are 4 molecules. What values of pIC50 were reported for them?
1. CCOC(=O)c1c(O)c(O)c(C(=O)N(C)C)n1-c1ccc(I)cc1
2. CCOC(=O)c1c(O)c(OCC(=O)OC(C)(C)C)c(C(=O)OCC)n1-c1ccc(F)cc1
3. CCOC(=O)c1c(O)c(O)c(C(=O)OCC)n1-c1ccc(C(C)C)cc1
4. CCOC(=O)c1c(O)c(O)c(C(=O)OCC)n1-c1ccc(OCC)cc1

### Response
["> 5.00", "4.70 to 5.00", "> 5.00", "> 5.00"]

====

# Target: pneumolysin (Streptococcus pneumoniae serotype 2, UniProt Q04IN8)
# Experimental details: Inhibition of the haemolytic activity of pneumolysin (sheep erythrocytes)
# Format: cell-based
# Particulars: IC50, inhibition of pneumolysin-induced haemolysis of sheep erythrocytes; class symbols of Table 1
What IC50 was measured for each of the following?

I have 6 molecules here; please give me IC50 for each one.
1. CCOC(=O)c1c(OC(=O)C(C)(C)COCCOCCOP(=O)(O)O)c(OC(=O)C(C)(C)COCCOCCOP(=O)(O)O)c(C(=O)N(C)C)n1-c1ccc(OC)cc1 [UL1-117]
2. COc1ccc(-n2c(C(=O)N(C)C)c(OCc3ccccc3)c(OCc3ccccc3)c2C(=O)N2CCN(C)CC2)cc1 [UL1-056]
3. CCOC(=O)c1c(O)c(O)c(C(=O)OCC)n1-c1ccc(Oc2ccccc2)cc1 [UL2-007]
4. COc1ccc(-n2c(C(=O)N(C)C)c(OC(=O)[C@H]3CC[C@H](COP(=O)(O)O)CC3)c(OC(=O)[C@H]3CC[C@H](COP(=O)(O)O)CC3)c2C(=O)N(C)C)cc1 [UL1-126]
5. CCOC(=O)c1c(OC(=O)C(C)(C)COCCOCCOC)c(OC(=O)C(C)(C)COCCOCCOC)c(C(=O)N(C)C)n1-c1ccc(OC)cc1 [UL1-111]
6. CCOc1ccc(-n2c(C(=O)N(CC)CC)c(OCc3ccccc3)c(OCc3ccccc3)c2C(=O)N(CC)CC)cc1 [UL1-045]

### Response
1. 10 to 20 µM
2. 10 to 20 µM
3. < 10 µM
4. < 10 µM
5. < 10 µM
6. < 10 µM

====

Assignment: determine reported [ ] (μM) t60 min. Prodrug for the given molecules.
# Experimental details: Conversion of prodrug derivatives to active inhibitors in mouse plasma
# Format: in vitro ADME
# Particulars: 37° C., 10 μM start, prodrug remaining, 60 min
# Method: The samples were then analysed by LC-MS/MS to obtain the amount of active compound appearing and prodrug derivative remaining over time. The mouse plasma assay system is considered to be a good model for human behaviour. […] Prodrug derivatives were assessed in the mouse and human plasma stability assay at a concentration of 10 μM. […] (1) The active compound was quantified using a 6 point calibration curve prepared in deactivated mouse and human plasma. […]
One number for each entry, in µM.

Sample records with [ ] (μM) t60 min. Prodrug:
CCOC(=O)c1c(OC(=O)C(C)C)c(OC(=O)C(C)C)c(C(=O)N(C)C)n1-c1ccc(OCCOCCOCCOC)cc1	0
CCOC(=O)c1c(O)c(OC(=O)N(C)C)c(C(=O)N(C)C)n1-c1ccc(OC)cc1	9.78
CCOC(=O)c1c(OC(=O)N(C)C)c(OC(=O)N(C)C)c(C(=O)N(C)C)n1-c1ccc(OC)cc1	9.40
CCOC(=O)c1c(O)c(OP(=O)(O)O)c(C(=O)N(C)C)n1-c1ccc(OC)cc1	2.43
CCOC(=O)c1c(OC(=O)C(C)(C)COCCOCCOP(=O)(O)O)c(OC(=O)C(C)(C)COCCOCCOP(=O)(O)O)c(C(=O)N(C)C)n1-c1ccc(OC)cc1	1.41
CCOC(=O)c1c(OC(=O)C(C)(C)C)c(OC(=O)C(C)(C)C)c(C(=O)N(C)C)n1-c1ccc(OC)cc1	0.136
CCOC(=O)c1c(O)c(OS(N)(=O)=O)c(C(=O)N(C)C)n1-c1ccc(OC)cc1	9.60
CCOC(=O)c1c(O)c(OC(=O)N2CCC(N3CCCCC3)CC2)c(C(=O)N(C)C)n1-c1ccc(OC)cc1	8.72

Please give [ ] (μM) t60 min. Prodrug for each item listed below.
1. CCOC(=O)c1c(OC(C)=O)c(OC(C)=O)c(C(=O)N(C)C)n1-c1ccc(OC)cc1
2. CCOC(=O)c1c(OC(=O)N2CCC(N3CCCCC3)CC2)c(OC(=O)N2CCC(N3CCCCC3)CC2)c(C(=O)N(C)C)n1-c1ccc(OC)cc1
3. CCOC(=O)c1c(OC(=O)C(C)(C)COCCOCCOC)c(OC(=O)C(C)(C)COCCOCCOC)c(C(=O)N(C)C)n1-c1ccc(OC)cc1

### Response
[0, 2.57, 1.16]
